Where a name gives a salt, the structure may show the parent alone.
assay metric: melting point

IN: Can you look up the measured melting point of NC(=O)c1ccc(F)c2c1CC(N(CCCc1c[nH]c3cc(F)ccc13)CC1CC1)CO2 (stereo not shown) (as salt: hydrochloride) [Compound 52a] for me?
OUT: 123 °C (dec.)

IN: NC(=O)c1ccc(F)c2c1OCC(NCCCc1c[nH]c3c(F)cc(F)cc13)C2 (stereo not shown) (as salt: hydrochloride) , same question.
OUT: 149 °C (dec.)

IN: Try the compound CNC(=O)c1ccc(F)c2c1CC(N(CCCc1c[nH]c3ccc(F)cc13)C1CCC1)CO2 (stereo not shown) (as salt: hydrochloride)
OUT: 132 °C (dec.)

IN: Continue with CCN(CCc1coc2c(OC)cccc12)C1COc2c(F)ccc(C(N)=O)c2C1 (stereo not shown) (as salt: hydrochloride)
OUT: 124 to 132 °C

IN: Now try CCCN(CCCc1c[nH]c2ccc(Cl)cc12)C1COc2c(F)ccc(C(N)=O)c2C1 (stereo not shown) (as salt: hydrochloride) .
OUT: 148 to 154 °C (dec.)

IN: And for CCCN(CCCc1c[nH]c2ccc(F)cc12)C1COc2c(F)ccc(C(N)=O)c2C1 (stereo not shown) (as salt: hydrochloride) [Compound 2] ?
OUT: 125 °C (dec.)

IN: Then this compound: CCCN(CCCc1c[nH]c2c(OC)cccc12)C1COc2c(F)ccc(C(N)=O)c2C1 (stereo not shown) (as salt: hydrochloride)
OUT: 158 to 164 °C (dec.)

IN: Follow-up entry: N#Cc1ccc2[nH]cc(CCCN(C3CCC3)[C@H]3COc4c(F)ccc(C(N)=O)c4C3)c2c1 (as salt: hydrochloride) [Compound 97b]
OUT: 166 to 171 °C (dec.)

IN: Now the same for CC(CCc1c[nH]c2c(F)cc(F)cc12)N(CC1CC1)C1COc2c(F)ccc(C(N)=O)c2C1 (single isomer, unassigned) (as salt: HCl) [Compound 154a]
OUT: 160 to 165 °C

IN: Next: CNC(=O)c1ccc(F)c2c1CC(NCCCc1c[nH]c3ccc(F)cc13)CO2 (stereo not shown) (as salt: hydrochloride)
OUT: 148 °C (dec.)

IN: For CCN(CCCCc1coc2c(OC)cccc12)C1COc2c(F)ccc(C(N)=O)c2C1 (stereo not shown) (as salt: hydrochloride) then?
OUT: 112 to 118 °C

IN: Input CCN(CCCc1c[nH]c2c(OC)cccc12)C1COc2c(F)ccc(C(N)=O)c2C1 (stereo not shown) (as salt: hydrochloride)
OUT: 148 to 153 °C (dec.)

IN: Now the same for COc1ccc2[nH]cc(CCCN(C3CCC3)C3COc4c(F)ccc(C(N)=O)c4C3)c2c1 (stereo not shown) (as salt: hydrochloride)
OUT: 151 to 158 °C (dec.)

====

Target: cloned human 5-HT1A receptors (Homo sapiens, UniProt P08908)
Construct: expressed in transfected cells
Sequence (P08908 whole entry): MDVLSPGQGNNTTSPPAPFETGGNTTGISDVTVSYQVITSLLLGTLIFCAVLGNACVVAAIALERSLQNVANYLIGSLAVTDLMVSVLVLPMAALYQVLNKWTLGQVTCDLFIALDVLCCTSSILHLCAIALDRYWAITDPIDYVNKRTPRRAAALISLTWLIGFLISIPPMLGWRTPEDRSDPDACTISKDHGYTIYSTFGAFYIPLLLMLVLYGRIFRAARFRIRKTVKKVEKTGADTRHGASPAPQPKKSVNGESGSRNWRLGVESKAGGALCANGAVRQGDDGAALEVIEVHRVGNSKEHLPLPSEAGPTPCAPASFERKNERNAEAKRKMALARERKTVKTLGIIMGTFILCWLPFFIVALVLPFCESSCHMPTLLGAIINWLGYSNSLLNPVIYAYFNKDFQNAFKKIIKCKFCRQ
Test: 35S-GTPγS binding assay, 5-HT1A function
Format: biochemical
Details: antagonist potency, reversal of 8-OH-DPAT; read-out: 5-HT1A Function GTPγS IC50
Ranges used to classify IC50: 0 = under 400 nM, 1 = from 400 nM up to 800 nM, 2 = 800 nM and over

IN: Note: place this compound into its band. Item: COc1cccc2c(CCCN(CC3CC3)C3COc4c(F)ccc(C(N)=O)c4C3)coc12 (stereo not drawn)
OUT: 0

IN: // same read-out, input: COc1cccc2c(CCCN(C3CCC3)C3COc4c(F)ccc(C(N)=O)c4C3)coc12 (stereo not drawn)
OUT: 1

IN: Query CCCN(C(C)CCc1c[nH]c2ccc(C#N)cc12)C1COc2c(F)ccc(C(N)=O)c2C1 (single isomer, unassigned) [Compound 13c] next
OUT: 2

IN: Another compound: NC(=O)c1ccc(F)c2c1C[C@@H](NCC1CCc3[nH]c4ccc(F)cc4c3C1)CO2 (single isomer, unassigned; (-)) [Compound 175a]
OUT: 1

IN: Another: CNC(=O)c1ccc(F)c2c1C[C@@H](N(CCCCc1c[nH]c3ccc(F)cc13)C1CCC1)CO2 [Compound 145b]
OUT: 2

IN: Further, for CNC(=O)c1ccc(F)c2c1CC(N(CCCCc1c[nH]c3ccc(F)cc13)C1CCC1)CO2 (stereo not drawn) ?
OUT: 1

IN: Repeat with COc1cccc2c1CC(N(CCCCc1c[nH]c3ccc(F)cc13)C1CCC1)CO2 (stereo not drawn)
OUT: 1

IN: Ok, now NC(=O)c1ccc(F)c2c1CC(N(CCCc1c[nH]c3cc(F)ccc13)CC1CC1)CO2 (stereo not drawn) [Compound 52a]
OUT: 2

IN: Now consider CCCN(CCCCc1coc2c(OC)cccc12)C1COc2c(F)ccc(C(N)=O)c2C1 (stereo not drawn) and answer again.
OUT: 0

IN: Now consider NC(=O)c1ccc(F)c2c1C[C@@H](N(CC1CC1)CC1CCc3[nH]c4ccc(F)cc4c3C1)CO2 (single isomer, unassigned; (+)) [Compound 178b] .
OUT: 1

IN: Query NC(=O)c1ccc(F)c2c1C[C@@H](NCC1CCc3c([nH]c4ccc(F)cc34)C1)CO2 (single isomer, unassigned; (-)) [Compound 179b] next
OUT: 2

IN: And what about the compound CCCN(CCCc1c[nH]c2ccc(F)cc12)C1COc2c(F)ccc(C(=O)NC)c2C1 (stereo not drawn) ?
OUT: 1

IN: Another compound to look at: CNC(=O)c1ccc(F)c2c1CC(N(CCCCc1c[nH]c3ccc(F)cc13)CC1CC1)CO2 (stereo not drawn)
OUT: 0

IN: Repeat with COc1cccc2c1C[C@@H](N(CCCc1c[nH]c3ccc(F)cc13)C1CCC1)CO2
OUT: 1
